Target: UniProt:P31391
Sequence (P31391 whole entry): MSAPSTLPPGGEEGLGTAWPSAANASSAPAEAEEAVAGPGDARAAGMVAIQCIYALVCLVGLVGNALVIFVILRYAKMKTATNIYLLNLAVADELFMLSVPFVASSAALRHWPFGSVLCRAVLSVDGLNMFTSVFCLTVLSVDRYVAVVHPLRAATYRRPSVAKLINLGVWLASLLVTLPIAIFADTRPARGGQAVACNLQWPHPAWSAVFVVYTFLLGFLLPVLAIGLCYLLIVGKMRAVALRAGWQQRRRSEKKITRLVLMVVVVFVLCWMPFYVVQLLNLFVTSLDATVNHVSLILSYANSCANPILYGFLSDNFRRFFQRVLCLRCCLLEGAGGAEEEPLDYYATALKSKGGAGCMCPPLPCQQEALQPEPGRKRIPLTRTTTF
Experiment: Inhibition of forskolin stimulated cAMP in CHO-K1 cells overexpressing SSTR4
Assay type: cell-based
Record form. Attribute: SSTR4 Activity pEC50. Fill in for each entry.

Example entries begin here.
[
  {
    "molecule": "CN1CCC(NC(=O)C(C)(C)COc2ncncc2C2CC2)CC1",
    "SSTR4 Activity pEC50": 6.8
  },
  {
    "molecule": "Cc1c([C@@H]2CN(C)C[C@H]2NC(=O)C(C)(C)COc2ncccc2C(F)(F)F)cnn1C (relative stereo)",
    "SSTR4 Activity pEC50": 8.8
  },
  {
    "molecule": "Cc1nc(Cl)ccc1OCC(C)(C)C(=O)NC1CCN(C)CC1",
    "SSTR4 Activity pEC50": 5.4
  }
]

Working through the 5 molecules below one at a time, give SSTR4 Activity pEC50 for each.
1. Cc1cc(C#N)cnc1OCC(C)(C)C(=O)NC1CCN(C)CC1
2. CN1C[C@@H](NC(=O)C(C)(C)COc2ncccc2C2CC2)[C@H](c2cnn(C)c2)C1 (relative stereo)
3. C[C@H]1CNCC[C@@H]1NC(=O)C(F)(F)COc1ncccc1C(F)(F)F
4. Cc1ccnc(OCC(C)(C)C(=O)NC2CCN(C)CC2)c1C
5. CN1CC[C@H](CNC(=O)C(C)(C)COc2ncccc2C(F)(F)F)C1

stdout:
1. 6.1
2. 7.9
3. 8.6
4. 6.6
5. 6.1
